- SYSTEM NAME: T1, cynomolgus EpCAM protein (cynomolgus, UniProt Q1WER1 27-265 (rhesus entry), limits assumed, biotinylated in the Octet assays (site not stated))
- T1 construct: also called cy EpCAM; biotinylated cynomolgus EpCAM protein
- T1 sequence: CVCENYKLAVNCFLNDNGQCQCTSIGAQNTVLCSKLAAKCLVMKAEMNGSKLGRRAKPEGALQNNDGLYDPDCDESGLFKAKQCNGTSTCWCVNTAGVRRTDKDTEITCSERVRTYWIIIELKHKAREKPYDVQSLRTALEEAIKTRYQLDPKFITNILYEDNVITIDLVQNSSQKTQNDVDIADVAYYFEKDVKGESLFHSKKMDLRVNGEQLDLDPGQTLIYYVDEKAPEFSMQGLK
- PROTOCOL SUMMARY: colorimetric ELISA
OBSERVED PROPERTY: Cynomolgus EpCAM/Control
The answer should be written as a number, with no unit following it.

Sample answers from the record:
{"BINDER": "EPL55 (VHH) VHH: QVQLQESGGGLVQAGGSLRLSCAASGDTFLRYAMGWFRQAPGKEREFVAAITWNGGNTDYAGSLKGRFTISRDNTKNTVYLQMNSLKPEDTAVYYCAADLTFGLASSHYQYDYWGQGTQVTVSS", "Cynomolgus EpCAM/Control": 7}
{"BINDER": "EPL2 (VHH) VHH: QVQLQESGGGLVQPGGSLRLSCAASESISSFIAVGWYRQAPGKERELVAGINRSGFTYYTDSVKGRFSISRDNAKNTVLLQMTSLKPEDTAVYYCNAGGLYFSNAYTQGDYWGQGTQVTVSS", "Cynomolgus EpCAM/Control": 24}
{"BINDER": "EPL58 (VHH) VHH: QVQLQESGGGLVQAGGSLRLSCAASGPIFSDTIRTMGWYRQAAGKQRELVATIASFPSRTNYVDSVKGRFTISRDIAKNTVYLQMDSLKPEDTAVYYCNVDLASIPTKTYWGQGTQVTVSS", "Cynomolgus EpCAM/Control": 4}
{"BINDER": "EPL117 (VHH) VHH: QVQLQESGGGLVQAGGSLRLSCAASGNIVRMTNMAWYRQAPGKQREFVATISAGGSTTYVDSVKDRFTISRDNTKNTVYLQMNYLKPEDTAVYYCATGSILTNRGAIPGSWGHGTQVTVSS", "Cynomolgus EpCAM/Control": 3}
{"BINDER": "EPL156 (VHH) VHH: QVQLQESGGGLVQPGASLRVSCAASEYILSMYRMAWYRQAPGKVRELVADMSSGGTTNYADFVKGRFTISRDNDRNTVYLQMNRLQPEDTAAYYCNVAGRTGPPSYDAFNNWGQGTQVTVSS", "Cynomolgus EpCAM/Control": 17}

The recorded Cynomolgus EpCAM/Control for entry EPL86 (VHH) VHH: QVQLQESGGGLVQPGGSLRLSCAASGFTFSDWAMSWVRQAPGKGLEWVSGIHYGDHTTHYADFVKGRFTISRDDAKNTLYLQMNSLKPEDTAVYYCARGSTKGQGTQVTVSS equals 31

The recorded Cynomolgus EpCAM/Control for entry EPL129 (VHH) VHH: QVQLQESGGGLVQAGGSLRLSCAASGFAFGNHWMYWYRQAPGRGRELVASISSGGSTNYVDSVKGRFTISRDNARNTVYLQMYSLRPEDTAVYYCGTSDNWGQGTQVTVSS equals 29

The recorded Cynomolgus EpCAM/Control for entry EPL189 (VHH) VHH: QVQLQESGGGLVQPGGSLRLSCAASGRINSINTMGWYRQAPGNQRELVAEITRGGTTNYADSVQGRYAISRDNAKNLVYLQMNSLKPEDTDVYYCNAQTFPTFSRPTGLDYWGQGTQVTVSS equals 8
